- Test system: MYB
- test: RT-qPCR splicing assay, MYB AJ/CJ mRNA
- Type: cell-based
- conditions_used: Homo sapiens, increase in alternative junction mRNA, A673 or K562 cells, 24 hours
Give measured AC50 for each item. Keep answers brief.

Lab note: measured AC50 of COc1cc(-c2ccc3c(c2)COc2nc(N4CC[C@@H](NC(C)(C)C)C4)ccc2-3)cnn1 [Compound 265] was < 0.1 µM

Looking up c1cnn(-c2ccc3c(c2)COc2nc(N4CCC5(CCNC5)CC4)ccc2-3)c1 [Compound 184] , I see its AC50 listed as 1 to 10 µM

Per the records, this molecule ( CN(C)[C@H]1[C@@H]2CN(c3ccc4c(n3)OCc3cc(-n5cccn5)ccc3-4)C[C@@H]21 [Compound 197] ) has AC50 equal to 1 to 10 µM

Entry CN(c1ccc2c(c1)CCOc1cc(-n3cccn3)ccc1-2)[C@@H]1C[C@H]2CC[C@@H](C1)N2 [Compound 113] , AC50 reported as > 10 µM

AC50 recorded for this molecule, COc1cc(-c2ccc3c(c2)COc2nc(N(C)[C@@H]4C[C@H]5CC[C@@H](C4)N5)ccc2-3)ccn1 [Compound 156] , is 0.1 to 1 µM

Quick note, AC50 for COc1cc(-c2ccc3c(c2)COc2nc(N4CCC(N(C)C(C)C)C4)ccc2-3)cnn1 (stereo not drawn) [Compound 311] landed at 0.1 to 1 µM

Looking up Cc1cc(-c2ccc3c(c2)COc2nc(N4CC[C@@H](NC(C)(C)C)C4)ccc2-3)cnn1 (single isomer, unassigned) [Compound 274] , I see its AC50 listed as > 10 µM

Reported AC50 for CC1(C)CC(Nc2ccc3c(n2)OCc2cc(-n4cccn4)ccc2-3)CC(C)(C)N1 [Compound 165] was 0.1 to 1 µM

AC50 reading for COc1cc(-c2ccc3c(c2)COc2nc(N4CCC(N(C)C)C4)ccc2-3)cnn1 (stereo not drawn) [Compound 306] : 1 to 10 µM

Query COc1cc(-c2ccc3c(c2)COc2nc(N4CCC(NC5CCC5)C4)ccc2-3)cnn1 (stereo not drawn) [Compound 280] yields AC50 of 0.1 to 1 µM

AC50 recorded for this molecule, FC1(F)CC2CC(Oc3ccc4c(n3)OCc3cc(-c5cn[nH]c5)ccc3-4)CC1N2 (stereo not drawn) [Compound 224] , is > 10 µM

// sample CN(c1ccc2c(n1)COc1cc(-c3cn[nH]c3)ccc1-2)[C@@H]1C[C@H]2CC[C@@H](C1)N2 [Compound 121] , its AC50 was 1 to 10 µM

Kindly note the recorded AC50 for CC1(NC2CCN(c3ccc4c(n3)OCc3cc(-c5cn[nH]c5)ccc3-4)C2)CC1 (stereo not drawn) [Compound 253] , which is 0.1 to 1 µM

Quick note, AC50 for CN(c1ccc2c(n1)OCc1cc(-n3ccnn3)ccc1-2)[C@@H]1C[C@H]2CC[C@@H](C1)N2 [Compound 152] landed at 0.1 to 1 µM

GET /value?item= COc1cc(-c2ccc3c(c2)COc2nc(N4CCC(NC5(C)CCC5)C4)ccc2-3)cnn1 (stereo not drawn) [Compound 285] &field=AC50 returns 0.1 to 1 µM

Query CCOc1cc(-c2ccc3c(c2)COc2nc(N4CCC(NC(C)(C)C)C4)ccc2-3)cnn1 (stereo not drawn) [Compound 267] yields AC50 of > 10 µM

The recorded AC50 for CC(C)(C)NC1CCN(c2ccc3c(n2)OCc2cc(-c4cnnc(OC5CC5)c4)ccc2-3)C1 (stereo not drawn) [Compound 268] is > 10 µM

Consider CN(c1ccc2c(n1)OCc1cc(-n3cccn3)ccc1-2)C1CC(C)(C)NC(C)(C)C1 [Compound 148] . Its measured AC50 is 1 to 10 µM

Note to self: AC50 recorded for CN(c1ccc2c(n1)COc1cc(-n3cccn3)ccc1-2)[C@@H]1C[C@H]2CC[C@@H](C1)N2 [Compound 124] was > 10 µM

response.value for COc1cc(-c2ccc3c(c2)COc2nc(N4CC[C@@H](N(C)C(C)(C)C)C4)ccc2-3)cnn1 [Compound 271] (field: AC50) = 0.1 to 1 µM

Reported AC50 for COc1cc(-c2ccc3c(c2)COc2nc(N4CCC(N5CCCC5)C4)ccc2-3)cnn1 (stereo not drawn) [Compound 305] was 1 to 10 µM

Fc1ccn(-c2ccc3c(c2)COc2nc(O[C@@H]4C[C@H]5CC[C@@H](C4)N5)ccc2-3)n1 [Compound 230] has a reported AC50 of 1 to 10 µM

Sample [2H]C([2H])([2H])N(c1ccc2c(n1)OCc1cc(-n3cccn3)ccc1-2)[C@@H]1C[C@H]2CC[C@@H](C1)N2 [Compound 201] ; AC50 observed: 1 to 10 µM

AC50 for CC(C)Oc1cnnc(-c2ccc3c(c2)COc2nc(N4CCC(NC(C)(C)C)C4)ccc2-3)c1 (stereo not drawn) [Compound 286] is > 10 µM

Lab book: AC50 of COc1cc(-c2ccc3c(c2)COc2nc(N4CCC(NC5CC5)C4)ccc2-3)cnn1 (stereo not drawn) [Compound 255] noted as 1 to 10 µM

// sample Fc1cc2c(cc1-c1cn[nH]c1)COc1nc(O[C@@H]3C[C@H]4CC[C@@H](C3)N4)ccc1-2 [Compound 260] , its AC50 was < 0.1 µM

Lab note: COc1cc(-c2ccc3c(c2)COc2nc(N4CCC(NCC5CC5)C4)ccc2-3)cnn1 (stereo not drawn) [Compound 264] gave AC50 of 1 to 10 µM

response.value for COc1cc(-c2ccc3c(c2F)COc2nc(N(C)[C@@H]4C[C@H]5CC[C@@H](C4)N5)ccc2-3)cnn1 [Compound 245] (field: AC50) = < 0.1 µM

Entry under test: COc1cc(-c2ccc3c(c2)COc2cc(N4CCC(NC(C)(C)C)C4)ncc2-3)cnn1 (stereo not drawn) [Compound 289] . Its AC50 was 1 to 10 µM

Field AC50 (entry c1cc2c(cc1-c1cn[nH]c1)COc1nc(N3CCC34CCNCC4)ccc1-2 [Compound 221, 2,2,2-trifluoroacetate] ) reads > 10 µM
